Entry source: ChEMBL document CHEMBL4028848

- Protocol text: Cmax in male Sprague-Dawley rat at 30 mg/kg, po by LC-MS/MS analysis
- Type: ADME, organism-based
- Parameters: dose 30 mg/kg, route oral
- Cond: in vivo

{"Compound": "CC(=O)Nc1cc(-c2c(-c3ccc(F)cc3)nc([S+](C)[O-])n2C)ccn1 (stereo unspecified)", "Cmax / µM": 3.4}

====

- Protocol text: Half life in cynomolgus monkey at 20 mg/kg, po measured on day 1 and 27 post dose by LC-MS/MS analysis
- Assay type: ADME, organism-based, Macaca fascicularis
- Cond: in vivo

{"Molecule": "CC(=O)Nc1cc(-c2c(-c3ccc(F)cc3)nc([S+](C)[O-])n2C)ccn1 (stereo unspecified)", "half-life / h": 4.8}
